Recorded values, source PubChem BioAssay AID248.

Exercise: state measured T/C for each of the molecules provided.
# Test system: L1210 leukemia ip in BDF1 mice, survival T/C
# experimentNotes: NCI In Vivo Anticancer Drug Screen. Data for tumor model L1210 Leukemia (intraperitoneal) in B6D2F1 (BDF1) mice
# studyConditions: endpoint: mean survival time; dose: 200.0 mg/kg/injection; schedule: Q01DX001 (ip); vehicle: carboxymethylcellulose (CMC); higher = longer survival
Toxic doses and inconclusive results are not listed.

Observe how each entry below is paired with its result.
NC(=O)c1ccc(O)cc1; 92 % of control
C=CC(C)C(C)CC (stereo not given); 93 % of control
C=CCC1(Cc2ccsc2)C(=O)NC(=O)NC1=O; 92 % of control
O=C(Nc1cc2c3ccccc3ccc2c2ccccc12)C(F)(F)F; 92 % of control

Memo: CCC(CC)(CCN(C)C)c1ccccc1 , reported T/C: 104 % of control

----------
# Tested on: L1210 leukemia ip in BDF1 mice, survival T/C
# experimentNotes: NCI In Vivo Anticancer Drug Screen. Data for tumor model L1210 Leukemia (intraperitoneal) in B6D2F1 (BDF1) mice
# studyConditions: endpoint: mean survival time; dose: 100.0 mg/kg/injection; schedule: Q01DX001 (ip); vehicle: carboxymethylcellulose (CMC); higher = longer survival
Toxic doses and inconclusive results are not listed.
Exercise: state measured T/C for each of the molecules provided.

OC1c2ccccc2-c2c(F)c(F)c(F)c(F)c21 (configuration not stated); 97 % of control
COC1(OC)CCC2(C)C(CCCC2OS(=O)(=O)c2ccc(C)cc2)C1 (configuration not stated); 97 % of control
Nc1ncnc2nncnc12; 93 % of control
CCCCN(C)N=Nc1ccccc1C(=O)NN; 96 % of control
O=C(Nc1cc2c3ccccc3ccc2c2ccccc12)C(F)(F)F; 91 % of control
CCC1([N+](=O)[O-])COP(=O)(NCc2ccncc2)OC1 (configuration not stated); 98 % of control
CCCCCCC[CH2][Sn]([Cl])([Cl])[CH2]CCCCCCC; 96 % of control
CCCC(Sc1ncnc2nc[nH]c12)C(=O)O (configuration not stated); 95 % of control

# per-item lookup of T/C; items listed below
1. COC(=O)CCCCCCCCCCS.[Pb]
2. COc1cc(N(CCCl)CCCl)ccc1/C=N/Nc1nncn1N
3. CON(C)c1nc(Cl)nc(N(C)OC)n1
4. NNc1cc(=O)n2ccccc2n1

["94 % of control", "98 % of control", "96 % of control", "98 % of control"]

----------
# Tested on: L1210 leukemia ip in BDF1 mice, survival T/C
# experimentNotes: NCI In Vivo Anticancer Drug Screen. Data for tumor model L1210 Leukemia (intraperitoneal) in B6D2F1 (BDF1) mice
# studyConditions: endpoint: mean survival time; dose: 400.0 mg/kg/injection; schedule: Q04DX003 (ip); vehicle: saline with Tween-80; higher = longer survival
# Method: The antitumor activity of compounds was measured in mice bearing transplantable tumors. Survival or tumor size were measured and the results are expressed as the measurement made in the treated group (T) divided by the measurement made in the vehicle treated control group (C). The tumor model used in this assay is L1210 Leukemia (intraperitoneal) in B6D2F1 (BDF1) mice
Toxic doses and inconclusive results are not listed.
Exercise: state measured T/C for each of the compounds provided.

CC(C)(O)C/C=C/c1ccccc1; 106 % of control
CCCCCCCCCCCC(=O)NC(=S)Nc1ccc(C(=O)O)cc1; 101 % of control
O=c1[nH]cnc2c1ncn2Cc1ccc([N+](=O)[O-])cc1; 94 % of control

# per-item lookup of T/C; items listed below
1. NC(=O)CC(NC(=O)OCc1ccccc1)c1nn[nH]n1 (centres undefined)
2. O=S(=O)(Cc1ccccc1)Cc1ccccc1
3. Nc1ccc2[nH]ncc2c1
4. CCCC(C)C(=O)Nc1cccc(OC(=O)NC(C)C)c1 (centres undefined)
5. O=C(O)C1OC1c1ccccc1 (centres undefined)
6. [Br][Ge]([c]1ccccc1)([c]1ccccc1)[c]1ccccc1
7. COC(OC)c1[nH]c(=S)[nH]c(=O)c1Cc1c(Cl)cccc1Cl

1: 91 % of control; 2: 100 % of control; 3: 110 % of control; 4: 92 % of control; 5: 100 % of control; 6: 90 % of control; 7: 94 % of control

# per-item lookup of T/C; items listed below
1. C/C=C1\CN2CCc3c(n(C)c4ccccc34)C2CC1C(=O)OC (centres undefined)
2. O=C(Nc1ccc(S(=O)(=O)F)cc1)Oc1ccc([N+](=O)[O-])cc1
3. CCCCCC(Br)C(Br)CC(Br)C(Br)CCCCCCCC(=O)O (centres undefined)
4. N#CCCN(CCC#N)C(=O)Nc1cccc(Cl)c1
5. CCOC(=O)C(CC(OCC)OCC)C(=O)OCC
6. CC(C)(C1c2ccccc2C(=NO)c2ccccc21)[N+](=O)[O-] (centres undefined)

["106 % of control", "103 % of control", "91 % of control", "91 % of control", "100 % of control", "98 % of control"]
